- Tested on: SR leukemia
- experiment summary: NCI-60 one-dose screen, 48 h (100 = growth as untreated, 0 = no growth, -100 = all killed)
- test settings: 10 µM unless noted
This is part of a sample that, as a whole, favours compounds with a hit. Of some 83,000 tested, about 20% had one in any assay.
observable: growth (%)

- molecule: "CCCNNC(=O)c1ccc(-c2ccc(NC(=O)CCCCCCC(=O)N[C@H](C(=O)N3C[C@H](O)C[C@H]3C(=O)N[C@@H](C)c3ccc(-c4scnc4C)cc3)C(C)(C)C)cc2)cc1"
  observable: "growth"
  experimental value: 17.9
- molecule: "CSc1ccc(C(=NNS(=O)(=O)c2ccc(C)cc2)c2ccc(Cl)cc2)cc1"
  observable: "growth"
  experimental value: 114
- molecule: "COc1ccc(/C=N/NC(=O)CSc2nc(-c3cnccn3)cc(-c3cccs3)c2C#N)cc1"
  observable: "growth"
  experimental value: 65.3
- molecule: "CN1CCN(Cc2ccc(NC(=O)c3cncc(C#Cc4cnc5ccc(NCCO)nn45)c3)cc2C(F)(F)F)CC1"
  observable: "growth"
  experimental value: 4.47
- molecule: "O=C1[C@@H]2Cc3c([nH]c4ccccc34)[C@H](c3ccc(Br)cc3)N2C(=O)CN1C1CCN(Cc2c(Cl)cccc2Cl)CC1"
  observable: "growth"
  experimental value: 91.7
- molecule: "CN(C)c1ccc(/C=N/Nc2nc(N/N=C/c3ccc(N(C)C)cc3)nc(N3CCCCC3)n2)cc1"
  observable: "growth"
  experimental value: -14.1
- molecule: "COc1ccc(C2c3[nH]c4ccc(Cl)cc4c3CCN2c2oc(CO)nc2C#N)cc1 (stereo not drawn)"
  observable: "growth"
  experimental value: 17.4
- molecule: "COc1ccc(/C=N\\NC(=O)c2cnn(CC(O)c3ccccc3)c2N)cc1OCc1ccc(Cl)cc1 (stereo not drawn)"
  observable: "growth"
  experimental value: 65.8

====

- Test system: HCT-15 colon
- experiment summary: NCI-60 one-dose screen, 48 h (100 = growth as untreated, 0 = no growth, -100 = all killed)
- test settings: 10 µM unless noted
About 83,000 compounds went through this panel and 20% of them were active in at least one assay; those are over-represented in the sample as a whole.
observable: growth (%)

- compound: "Clc1ccc2c(N/N=C/c3c[nH]c4ccccc34)ccnc2c1"
  tested system: "HCT-15 colon"
  experimental value: -82.7
- compound: "COc1ccc2sc(NC(=O)CCCCCCNC(=O)C(O)(O)C(F)(F)F)nc2c1"
  tested system: "HCT-15 colon"
  experimental value: 5.37
- compound: "Cc1[nH]c(C(=O)Nc2ccccc2OCc2cccc(C(=O)NC3CCCNC3)c2)c(Cl)c1Cl (stereo not given)"
  tested system: "HCT-15 colon"
  experimental value: -84.2
- compound: "CN1CCN(c2ccc(Nc3nc(NCCCNS(=O)(=O)c4ccc(F)cc4)c4sccc4n3)cc2)CC1"
  tested system: "HCT-15 colon"
  experimental value: 25.5
- compound: "CCCCN1C(=O)/C(=c2\\sc3n(c2=O)C2C(NN=3)N(CC)C(=O)N2CC)c2cccc(C)c21 (stereo not given)"
  tested system: "HCT-15 colon"
  experimental value: 14.9

====

- Test system: SNB-19 CNS
- experiment summary: NCI-60 one-dose screen, 48 h (100 = growth as untreated, 0 = no growth, -100 = all killed)
- test settings: 10 µM unless noted
About 83,000 compounds went through this panel and 20% of them were active in at least one assay; those are over-represented in the sample as a whole.
growth: recorded values

- compound structure: "CNCCN(C)c1ccc(Nc2cc(NC3CC3)n3ncc(C#N)c3n2)cc1NC(C)=O"
  tested system: "SNB-19 CNS"
  growth / %: 10.1
- compound structure: "CN1CCN(CC#CCn2c3c(c4ccccc42)C[C@]2(C)[C@H]4CC=C5[C@@H]6CC(C)(C)CC[C@]6(C(=O)N6CCOCC6)CC[C@@]5(C)[C@]4(C)CC[C@H]2C3(C)C)CC1"
  tested system: "SNB-19 CNS"
  growth / %: 83
- compound structure: "COc1ccccc1/C=C1\\Oc2ccc(O)c(O)c2C1=O"
  tested system: "SNB-19 CNS"
  growth / %: 86.4
- compound structure: "CCN(CC)S(=O)(=O)c1ccc(-c2nc(C(Cl)Cl)nc3cc(C)nn23)cc1"
  tested system: "SNB-19 CNS"
  growth / %: 46.2
- compound structure: "N#Cc1cnc2ccc(-c3cnc4n[nH]nc4c3)cc2c1N1CCc2cc(F)c(Cl)cc21"
  tested system: "SNB-19 CNS"
  growth / %: 16.4
- compound structure: "CCCc1[nH]c(-c2cc(N)ccc2Cl)c2c1C(=O)CCCC2"
  tested system: "SNB-19 CNS"
  growth / %: 100
- compound structure: "CN1CCN(Cc2ccc(NC(=O)c3cncc(C#Cc4cnc5ccc(OCC6COC6)nn45)c3)cc2C(F)(F)F)CC1"
  tested system: "SNB-19 CNS"
  growth / %: -44.9
- compound structure: "NC(=O)c1c(NC(=O)c2ccc(C(F)(F)F)cc2)sc2c1CCC(=O)C2"
  tested system: "SNB-19 CNS"
  growth / %: 16.3
- compound structure: "O=c1oc2ccc(-c3ccc(F)cc3F)cc2c(=O)n1-c1ccc(Br)cc1F"
  tested system: "SNB-19 CNS"
  growth / %: 71.7
